Tested on: HT-29 cell line
Assay: Cell viability assay, impedance-based xCELLigence SP System
Design: species or system human
Details: 48 h incubation, Delta CI normalized to control, sigmoidal fit, mean ± SD of three parallel measurements, read-out: IC50 of cytotoxicity
parameter: IC50 (µM)

compound="COc1cccc2c1C(=O)c1c(O)c3c(c(O)c1C2=O)C[C@@](O)(C(C)=NOCC(=O)NCCCC[C@@H](NC(=O)[C@H](Cc1ccc(O)cc1)NC(=O)[C@H](CO)NC(=O)[C@H](Cc1c[nH]c2ccccc12)NC(=O)[C@H](Cc1c[nH]cn1)NC(=O)[C@@H]1CCC(=O)N1)C(=O)N[C@@H](CC(C)C)C(=O)N[C@@H](CCCNC(=N)N)C(=O)N1CCC[C@H]1C(=O)NCC(N)=O)C[C@@H]3O[C@H]1C[C@H](N)[C@H](O)[C@H](C)O1 [I-[^4Ser,^6D-Lys(Dau)], GnRH-I-[^4Ser,^6D-Lys(Dau=Aoa)]]" parameter=IC50 measurement=60.2

Recorded values, source paper PMC6769516.
